Literature compilation of Ki measurements on Adenosine receptor A2b (Homo sapiens).
Class membership depends on Ki alone; the intervals are L: < 30 nM; M: ≥ 30 nM and < 200 nM; H: ≥ 200 nM

MOLECULE: COc1cc(-c2cc3c([nH]2)c(=O)n(C)c(=O)n3C)ccc1OCC(=O)Nc1ccc(F)cc1
ASSAY_SYSTEM: Adenosine receptor A2b (Homo sapiens)
DISCRETE_LABEL: M
--
MOLECULE: CCCn1c(=O)c2[nH]c(-c3ccccc3)cc2n(CCC)c1=O
ASSAY_SYSTEM: Adenosine receptor A2b (Homo sapiens)
DISCRETE_LABEL: H
--
MOLECULE: CCCn1c(=O)n(C)c(=O)c2[nH]c(-c3ccc(OCC(=O)Nc4ccc(F)cc4)cc3)cc21
ASSAY_SYSTEM: Adenosine receptor A2b (Homo sapiens)
DISCRETE_LABEL: L
--
MOLECULE: CC1=C(C(=O)OC(C)C)C(c2ccns2)n2c(nc3ccccc32)N1 (racemic)
ASSAY_SYSTEM: Adenosine receptor A2b (Homo sapiens)
DISCRETE_LABEL: M
--
MOLECULE: OC[C@H]1O[C@@H](n2cnc3c(NC4CCCC4)nc(-n4cccn4)nc32)[C@H](O)[C@@H]1O
ASSAY_SYSTEM: Adenosine receptor A2b (Homo sapiens)
DISCRETE_LABEL: H
--
MOLECULE: O=C(Nc1cccnc1)Nc1nc2nn(CCO)cc2c2nc(-c3ccco3)nn12
ASSAY_SYSTEM: Adenosine receptor A2b (Homo sapiens)
DISCRETE_LABEL: H
--
MOLECULE: Cn1c(=O)c2c(ncn2CCO)n(C)c1=O
ASSAY_SYSTEM: Adenosine receptor A2b (Homo sapiens)
DISCRETE_LABEL: H
--
MOLECULE: CCCn1c(=O)c2[nH]c(-c3ccc(OCC(=O)c4ccc(I)cc4)nn3)nc2n(CCC)c1=O
ASSAY_SYSTEM: Adenosine receptor A2b (Homo sapiens)
DISCRETE_LABEL: H
--
MOLECULE: Cn1c(=O)n(CCc2ccccc2)c(=O)c2[nH]cnc21
ASSAY_SYSTEM: Adenosine receptor A2b (Homo sapiens)
DISCRETE_LABEL: H
--
MOLECULE: CCCCn1c(=O)[nH]c2[nH]c(-c3ccc(S(=O)(=O)Oc4ccc([N+](=O)[O-])cc4)cc3)nc2c1=O
ASSAY_SYSTEM: Adenosine receptor A2b (Homo sapiens)
DISCRETE_LABEL: L
--
MOLECULE: CCCn1c(=O)c2[nH]c(-c3ccc(OCC(=O)Nc4ncccc4O)cc3)cc2n(CCC)c1=O
ASSAY_SYSTEM: Adenosine receptor A2b (Homo sapiens)
DISCRETE_LABEL: L
--
MOLECULE: CCC(=O)Nc1cc(-c2ccsc2)nc(-c2ccsc2)n1
ASSAY_SYSTEM: Adenosine receptor A2b (Homo sapiens)
DISCRETE_LABEL: M
--
MOLECULE: CCN(C(C)=O)c1ccc(OC)c2nc(NC(=O)c3ccc(CN(C)S(C)(=O)=O)cc3)sc12
ASSAY_SYSTEM: Adenosine receptor A2b (Homo sapiens)
DISCRETE_LABEL: L
--
MOLECULE: CCOC(=O)C1=C(CC)NC(=O)NC1c1ccco1 (racemic)
ASSAY_SYSTEM: Adenosine receptor A2b (Homo sapiens)
DISCRETE_LABEL: H

---

Literature compilation of Ki measurements on Adenosine receptor A2b (Homo sapiens, UniProt P29275).
Biological target: Adenosine receptor A2b (Homo sapiens, UniProt P29275)
Sequence (P29275 whole entry): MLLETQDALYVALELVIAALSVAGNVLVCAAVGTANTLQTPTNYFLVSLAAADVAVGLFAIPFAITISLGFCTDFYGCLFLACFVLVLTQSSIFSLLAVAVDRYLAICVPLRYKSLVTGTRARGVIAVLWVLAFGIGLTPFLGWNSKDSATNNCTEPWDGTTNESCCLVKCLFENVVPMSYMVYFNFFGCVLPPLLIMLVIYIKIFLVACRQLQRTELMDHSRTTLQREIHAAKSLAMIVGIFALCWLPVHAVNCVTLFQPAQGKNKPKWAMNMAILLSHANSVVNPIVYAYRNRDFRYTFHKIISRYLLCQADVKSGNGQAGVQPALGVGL
VALUE_TYPE: Ki (nM)

COMPOUND_STRUCTURE_STRING: CCn1c(=O)[nH]c2nc(-c3ccccc3)[nH]c2c1=O
VALUE_TYPE: Ki
COMPARATIVE_SIGN: =
VALUE_MEASURED: 19
//
COMPOUND_STRUCTURE_STRING: CCC(=O)Nc1cc(-c2ccco2)nc(-c2ccco2)n1
VALUE_TYPE: Ki
COMPARATIVE_SIGN: =
VALUE_MEASURED: 20.5
//
COMPOUND_STRUCTURE_STRING: CCOC(=O)COc1ccc(-c2cc3c([nH]2)c(=O)n(C)c(=O)n3C)cc1OC
VALUE_TYPE: Ki
COMPARATIVE_SIGN: =
VALUE_MEASURED: 1510
//
COMPOUND_STRUCTURE_STRING: CCn1c(=O)c2[nH]c(-c3ccc(OCC(=O)N4CCc5ccccc5C4)cc3)nc2n(CCCOC)c1=O
VALUE_TYPE: Ki
COMPARATIVE_SIGN: =
VALUE_MEASURED: 49
//
COMPOUND_STRUCTURE_STRING: O=C(COc1ccccc1)Nc1nc2nn(CCCc3ccccc3)cc2c2nc(-c3ccco3)nn12
VALUE_TYPE: Ki
COMPARATIVE_SIGN: =
VALUE_MEASURED: 25
//
COMPOUND_STRUCTURE_STRING: CNc1nc(-c2ccccc2)c(C(=O)c2ccc(OC)cc2)s1
VALUE_TYPE: Ki
COMPARATIVE_SIGN: >
VALUE_MEASURED: 1000
//
COMPOUND_STRUCTURE_STRING: O=C(Nc1ccc(O)cc1)c1coc2ccccc2c1=O
VALUE_TYPE: Ki
COMPARATIVE_SIGN: =
VALUE_MEASURED: 2890
//
COMPOUND_STRUCTURE_STRING: CCCn1c(=O)c2[nH]c(-c3ccc(OCC(=O)Nc4ccc(Cl)cc4)cc3)nc2n(CCC)c1=O
VALUE_TYPE: Ki
COMPARATIVE_SIGN: =
VALUE_MEASURED: 7.94

---

Literature compilation of pKi measurements on Adenosine receptor A2b (Homo sapiens).
Target: Adenosine receptor A2b (Homo sapiens)
Sequence (P29275 whole entry): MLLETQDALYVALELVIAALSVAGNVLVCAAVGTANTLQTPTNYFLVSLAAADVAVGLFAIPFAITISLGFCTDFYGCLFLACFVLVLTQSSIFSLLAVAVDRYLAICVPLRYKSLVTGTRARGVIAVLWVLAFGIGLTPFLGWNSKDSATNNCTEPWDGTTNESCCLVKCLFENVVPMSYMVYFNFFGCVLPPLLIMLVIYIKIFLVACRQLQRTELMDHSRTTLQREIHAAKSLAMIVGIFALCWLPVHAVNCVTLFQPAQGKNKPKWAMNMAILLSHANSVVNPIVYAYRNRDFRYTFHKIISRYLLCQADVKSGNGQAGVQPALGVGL
pKi: −log10 of the molar value.
VALUE_TYPE: pKi

MOLECULE: CCCn1c(=O)n(C)c(=O)c2[nH]c(-c3ccc(OCC(=O)O)cc3)cc21
COMPARATIVE_SIGN: =
VALUE_MEASURED: 7.34
--
MOLECULE: CCCn1c(=O)c2[nH]c(-c3cnn(Cc4nc(-c5ccc(C#N)cc5)no4)c3)nc2n(CCC)c1=O
COMPARATIVE_SIGN: =
VALUE_MEASURED: 7.74
--
MOLECULE: Nc1nc(-n2cncn2)c2nnn(Cc3ccccc3F)c2n1
COMPARATIVE_SIGN: =
VALUE_MEASURED: 5.89
--
MOLECULE: CCOC(=O)Nc1nc(-c2ccccc2)c(C(=O)c2ccc(Cl)cc2)s1
COMPARATIVE_SIGN: <
VALUE_MEASURED: 6.00
--
MOLECULE: CCCn1c(=O)c2[nH]c(-c3ccc(OCC(=O)Nc4ccc(C(=O)OCC)cc4)cc3)cc2n(C)c1=O
COMPARATIVE_SIGN: =
VALUE_MEASURED: 7.93
--
MOLECULE: CCCn1c(=O)c2[nH]c(-c3cnn(Cc4ccccc4C(F)(F)F)c3)nc2n(CCC)c1=O
COMPARATIVE_SIGN: =
VALUE_MEASURED: 7.43
--
MOLECULE: CCCn1c(=O)c2[nH]c(-c3ccc(OC(C)C(=O)Nc4ccccc4)cc3)cc2n(CCC)c1=O (stereo unspecified)
COMPARATIVE_SIGN: =
VALUE_MEASURED: 8.29
--
MOLECULE: CCCn1c(=O)c2[nH]c(-c3cnn(Cc4noc(-c5ccc(C#N)cc5)n4)c3)nc2n(CCC)c1=O
COMPARATIVE_SIGN: =
VALUE_MEASURED: 7.85
--
MOLECULE: O=C(Nc1ccncc1)Nc1nc2nn(CCOCc3ccccc3)cc2c2nc(-c3ccco3)nn12
COMPARATIVE_SIGN: <
VALUE_MEASURED: 6.00
--
MOLECULE: O=c1[nH]c(=O)n(Cc2ccccc2)c2nc(-c3cnn(Cc4ccccc4)c3)[nH]c12
COMPARATIVE_SIGN: <
VALUE_MEASURED: 5.22
--
MOLECULE: CCCn1c(=O)c2[nH]c(-c3ccc(OCC(=O)Nc4ccc([N+](C)(C)C)cc4)cc3)cc2n(CCC)c1=O
COMPARATIVE_SIGN: =
VALUE_MEASURED: 7.04
--
MOLECULE: CCCn1c(=O)c2[nH]c(-c3cnn(Cc4ccccc4F)c3)nc2n(CCC)c1=O
COMPARATIVE_SIGN: =
VALUE_MEASURED: 7.55
--
MOLECULE: CCCn1c(=O)c2nc(-c3cnn(Cc4ccc(C(F)(F)F)cc4)c3)[nH]c2n(CCC)c1=O
COMPARATIVE_SIGN: =
VALUE_MEASURED: 7.70
--
MOLECULE: CCCn1c(=O)c2nc(-c3cc(OCC(=O)c4ccc(C(=O)OCC)cc4)nn3C)[nH]c2n(CCC)c1=O
COMPARATIVE_SIGN: <
VALUE_MEASURED: 6.00
--
MOLECULE: O=C(Nc1nc(-c2ccccc2)c(C(=O)c2ccc(Cl)cc2)s1)c1ccccc1
COMPARATIVE_SIGN: <
VALUE_MEASURED: 7.00
--
MOLECULE: CCOC(=O)c1cnn(-c2nc(NC34CCC(CC3)C4)c3ncn([C@@H]4O[C@H](CO)[C@@H](O)[C@H]4O)c3n2)c1
COMPARATIVE_SIGN: <
VALUE_MEASURED: 5.22
--
MOLECULE: OC[C@H]1O[C@@H](n2cnc3c(NC45CCC(CC4)C5)nc(-n4cccn4)nc32)[C@H](O)[C@@H]1O
COMPARATIVE_SIGN: <
VALUE_MEASURED: 5.22
--
MOLECULE: CCCn1c(=O)c2[nH]c(-c3cnn(Cc4ccc(F)c(C(F)(F)F)c4)c3)nc2n(CCC)c1=O
COMPARATIVE_SIGN: =
VALUE_MEASURED: 6.19
--
MOLECULE: CCCn1c(=O)c2[nH]c(-c3ccc(OCC(=O)Nc4ccccc4O)cc3)cc2n(CCC)c1=O
COMPARATIVE_SIGN: =
VALUE_MEASURED: 7.72
--
MOLECULE: O=c1[nH]c2nc(-c3cnn(Cc4ccccc4)c3)[nH]c2c(=O)n1CC1CC1
COMPARATIVE_SIGN: =
VALUE_MEASURED: 8.22
--
MOLECULE: CCCn1c(=O)c2c(nc(-n3cc(I)cn3)n2Cc2ccccc2)n(CCC)c1=O
COMPARATIVE_SIGN: <
VALUE_MEASURED: 5.24
